Test system: T-47D breast
protocol-description: NCI tumour cell line growth inhibition, 48 h
Form field: TGI (one value per entry).
property-label: TGI (µM)

compound	units-symbol	result-operator	value-reported
C=C(C1=CC(=O)C(C)(C)O1)[C@@H]1CC=C([C@@H]2CC[C@H]3[C@@]2(C)CC[C@H]2C(C)(C)C(=O)[C@H](O)C[C@]32C)[C@H](O)O1	µM	=	3.41
CCCCCN(CCCCC)CCCNc1c2c(nc3ccc(Cl)cc13)CCCC2	µM	=	6.17
Clc1ccc2c(NCCCCNc3nc(N4CCCCC4)nc4ccccc34)ccnc2c1	µM	=	4.3
CCOC(=O)Nn1c(C)nnc1-c1ccccc1	µM	>	100
Clc1ccc(/C=C/c2nc3ccccc3s2)cc1Cl	µM	=	9.77
c1ccc(N=C2SC3=Nc4cccc5cccc(c45)N3C2=Nc2ccccc2)cc1	µM	>	100
CCOC(=O)C(NC(C)=O)(Nc1ccc(F)cc1)C(F)(F)F (stereo unspecified)	µM	=	81.5
CCc1ccc(CCN2CCCCC2)nc1	µM	>	100
Cc1cn(C2CC(N(O)C(N)=O)C(CO)O2)c(=O)[nH]c1=O (stereo unspecified)	µM	>	100
Cc1ccc(C(=O)/C(=C/c2ccc([N+](=O)[O-])cc2)SCc2ccc(Cl)cc2)cc1	µM	=	36.7
COc1cc(-c2nn(-c3ccc(NC(=O)c4ccc(Cl)c(C(F)(F)F)c4)cc3)cc2-c2ccncc2)ccc1Cl	µM	>	100
Cc1cn(C2CC(n3cc(Cn4cc(I)c(=O)[nH]c4=O)nn3)C(CO)O2)c(=O)[nH]c1=O (stereo unspecified)	µM	>	100
COc1ccc(N2C(=O)C3c4[nH]c5ccccc5c4C4CCC(C(C)(C)C)CC4C3C2=O)c(C)c1 (stereo unspecified)	µM	>	100
COc1ccc2c(=O)c(O)c(-c3ccc(OC)c(OC)c3)oc2c1	µM	>	100
O=C(CCC(=O)c1ccc(Cl)cc1)NO	µM	>	100
O=C(/C=C/C12c3ccccc3C(c3ccccc31)C1C(=O)NC(=O)C12)c1ccncc1 (stereo unspecified)	µM	=	12.9
CC(C)C1/C(=N/O)CC(c2ccccc2)N(N=O)C1c1ccccc1 (stereo unspecified)	µM	=	96.2
NC(=O)c1sc(-n2cnc3ccccc32)cc1OCc1ccccc1Br	µM	>	25
Cc1ccc2c(=O)cc(-c3ccc(F)cc3)[nH]c2n1	µM	>	100
Oc1cc2c3c(c1)c1cc4c(cc1c[n+]3CC2)OCO4	µM	=	22.5
Nc1ccccc1SC(C[N+](=O)[O-])c1ccc2c(c1)OCO2 (stereo unspecified)	µM	=	25.8

---

Listed below: TGI values for each entry.
Test system: BT-549 breast
protocol-description: NCI tumour cell line growth inhibition, 48 h
property-label: TGI (µM)

molecule	measurement-target	property-label	result-operator	value-reported
Cc1ccc(C(=O)/C(=C/c2ccc([N+](=O)[O-])cc2)SCc2ccc(Cl)cc2)cc1	BT-549 breast	TGI	=	4.09
Cc1ccccc1-n1c(=O)c2ncn(CCCl)c2n(-c2ccccc2C)c1=S	BT-549 breast	TGI	>	100
N#CC1=C(N)N(c2ccccc2)C(c2ccco2)C1(C#N)C#N (stereo not given)	BT-549 breast	TGI	=	37.4
O=C(/C=C/C12c3ccccc3C(c3ccccc31)C1C(=O)NC(=O)C12)c1ccncc1 (stereo not given)	BT-549 breast	TGI	=	5.93
O=c1[nH][nH]c(=O)n1Cc1ccccc1Cn1c(=O)[nH][nH]c1=O	BT-549 breast	TGI	>	100
Cc1cccc(/C=N/NC(=S)Nc2ccccc2)n1	BT-549 breast	TGI	=	75
CC1=C(C(=O)Nc2ccc(Cl)c(Cl)c2)C(c2cccc(Oc3ccccc3)c2)NC(=S)N1 (stereo not given)	BT-549 breast	TGI	=	12.5
O=C(NNC(=O)c1ccccc1SSc1ccccc1C(=O)NNC(=O)c1ccccc1S)c1ccccc1S	BT-549 breast	TGI	=	74.8
Cc1coc2c1CC1(C)C(CCC(O)C1C)C2 (stereo not given)	BT-549 breast	TGI	>	100
COc1ccc(CNc2nc(NCc3ccc(OC)c(OC)c3)nc(NC3CCCCC3)n2)cc1	BT-549 breast	TGI	>	100

---

Test system: HOP-92 NSCLC
protocol-description: NCI tumour cell line growth inhibition, 48 h

compound	TGI
O=c1[nH][nH]c(=O)n1Cc1ccccc1Cn1c(=O)[nH][nH]c1=O	> 100 µM
CCN(CC)CCC(=O)Nc1ccc2c(c1)C(=O)c1ccc(NC(=O)CCN(CC)CC)cc1C2=O	30 µM
Cc1nc(C(N)=S)sc1/C(CC(=O)C(=O)Nc1cccc2ccc(O)cc12)=N\NC(=O)c1ccncc1	> 100 µM
CNC(=O)C(C)C1CCC2(C)C=CC(=O)C(C)=C2C1O (centres undefined)	> 100 µM

---

System: NCI-H226 lung
protocol-description: NCI tumour cell line growth inhibition, 48 h

molecule	result-operator	TGI / µM
CC(=O)O[C@H]1C(=O)[C@]2(C)[C@@H](OC(=O)OCCC(O)CO)C[C@H]3OC[C@@]3(OC(C)=O)[C@H]2[C@H](OC(=O)c2ccccc2)[C@]2(O)C[C@H](OC(=O)[C@H](O)[C@@H](NC(=O)c3ccccc3)c3ccccc3)C(C)=C1C2(C)C (stereo partly specified)	=	0.576
COC1=CC(c2ccc[nH]2)=N/C1=C\c1[nH]c(C)c(C(=O)OC(C)C)c1C	=	1.28
C[C@]12CC[C@H](O)CC1=CC[C@@H]1C2CC[C@]2(C)C(=O)N(N)C(=O)CC12 (stereo partly specified)	>	100
FC(F)(F)c1cc(Cl)cnc1N/N=C(/c1ccccc1)c1ccccn1	=	8.03
CCC12C=CCN3CCC4(C(=C(C(=O)OC)[C@@H]1O)Nc1ccccc14)C32 (stereo partly specified)	=	2.71
Oc1ccc(-c2nc(-c3cccnc3)c(-c3ccc(F)cc3)[nH]2)cc1	=	46.8

---

Tested on: SK-MEL-5 melanoma
protocol-description: NCI tumour cell line growth inhibition, 48 h

compound	TGI
N.N.N.N.O=[N+]([O-])[O-].[Co+3].[N-]=[N+]=[N-].[N-]=[N+]=[N-]	> 100 µM
COc1ccccc1C12OC(=O)C1(C)Oc1ccccc1C2=O (centres undefined)	> 100 µM
N#CC1=C(N)N(c2ccccc2)C(c2ccco2)C1(C#N)C#N (centres undefined)	32.3 µM
O=c1[nH][nH]c(=O)n1Cc1ccccc1Cn1c(=O)[nH][nH]c1=O	> 100 µM
Clc1cc(OC2C3CC4CC(C3)CC2C4)nc(Cl)n1 (centres undefined)	32.1 µM
CCOC(=O)c1c2ccccc2n2c(N)c(C(N)=O)nnc12	> 100 µM
C=C(CN1CCN(c2ccc(Cl)cc2F)CC1)c1ccc(C(=O)Nc2ccccc2N)cc1	> 22.4 µM
CCC12C=CCN3CCC4(C(=C(C(=O)OC)[C@@H]1O)Nc1ccccc14)C32 (some centres undefined)	3.45 µM
CC(=O)NC1=C(NCCC(C)C)C(=O)c2ccccc2C1=O	> 50 µM
O=C1CCC(=O)N1n1c(Cc2ccccc2)n[nH]c1=O	> 100 µM
CC(C)CCCCCCCCCCCCC(=O)NCC(=O)NC1C(C)OC(Nc2ncnc3c2ncn3C)C(O)C1O (centres undefined)	> 100 µM
Cc1cn(C2CC(n3cc(Cn4cc(I)c(=O)[nH]c4=O)nn3)C(CO)O2)c(=O)[nH]c1=O (centres undefined)	> 100 µM
Cc1ccc(SCC(CSCCO)OCn2cnc3c2NC(N)=NC32OCCO2)cc1 (centres undefined)	> 100 µM
Cc1ccc2c(=O)cc(-c3ccc(F)cc3)[nH]c2n1	> 100 µM
[N-]=[N+]=Nc1cc(=O)oc2ccccc12	> 100 µM
CC1C=C(CCCCCCCCCCCC[C@@H](O)[C@@H]2CC[C@@H]([C@@H]3CC[C@@H](C(O)CCCCCCCCCCCCC4=C[C@H](C)OC4=O)O3)O2)C(=O)O1 (some centres undefined)	27.4 µM
CO[C@H](C(=O)[C@@H](O)[C@@H](C)O)[C@@H]1Cc2cc3cc(O[C@H]4C[C@@H](O[C@H]5C[C@@H](O)[C@H](O)C(C)O5)[C@H](O)C(C)O4)c(C)c(O)c3c(O)c2C(=O)[C@H]1O[C@H]1C[C@@H](O[C@H]2C[C@@H](O[C@H]3C[C@](C)(O)C(=O)C(C)O3)[C@@H](O)C(C)O2)[C@H](O)C(C)O1 (some centres undefined)	0.136 µM
Cc1cccc2c(=O)cc(-c3ccccc3)[nH]c12	78.4 µM
Cc1cccc(/C=N/NC(=S)Nc2ccccc2)n1	> 22.5 µM
O=C(Cc1cccs1)N[C@@H]1C(=O)N2C(C(=O)OC(c3ccccc3)c3ccccc3)=C(CO)CS[C@H]12	> 100 µM
COC(=O)C1CCC(=O)N1C(c1ccccc1)c1ccc(OC)c(OC)c1 (centres undefined)	> 100 µM
Cc1cc(O)c2c(=O)c3ccccc3[nH]c2c1	31.1 µM
c1ccc(N=C2SC3=Nc4cccc5cccc(c45)N3C2=Nc2ccccc2)cc1	> 100 µM
O=C1CCC23CC(C=CC=C12)n1c(=O)n(-c2ccccc2)c(=O)n13 (centres undefined)	> 100 µM
CCOC(=O)CN1C(=O)c2cccc3cc([N+](=O)[O-])cc(c23)C1=O	25.5 µM
COC(CN1C(=O)c2cccc3cccc(c23)C1=O)OC	> 100 µM
CCCCC(=O)OCC(=O)[C@]1(O)Cc2c(O)c3c(c(O)c2[C@@H](OC2CC(NC(=O)C(F)(F)F)C(O)C(C)O2)C1)C(=O)c1c(OC)cccc1C3=O (some centres undefined)	1.64 µM
CC(N)Cc1ccc(C(=O)Cl)cc1 (centres undefined)	> 100 µM
COc1cc(/C=N/NC(=O)c2ccc(C(F)(F)F)nc2Nc2ccc(Cl)cc2C)ccc1O	3.28 µM
CCOC(=O)Nn1c(C)nnc1-c1ccccc1	> 100 µM
Cc1ccc(NC2=C(Cl)C(=O)N(Cc3ccccc3)C2=O)cc1O	37.5 µM
COc1ccc(N2C(=O)C3c4[nH]c5ccccc5c4C4CCC(C(C)(C)C)CC4C3C2=O)c(C)c1 (centres undefined)	> 100 µM
O=C(O)c1cccc2c1/C(=N/Nc1ccccc1)CC2	> 100 µM
NNC(=O)Nc1cccnc1	> 100 µM
CC1=C(C(=O)NCc2ccccc2)C(/C=C/c2ccccc2)C(C(=O)NCc2ccccc2)=C(C)N1	> 100 µM
COc1cc(/C=C2\S/C(=N/Nc3nc(-c4ccc(Br)cc4)cs3)NC2=O)cc(OC)c1OC	20.2 µM
C[C@@]12C[C@@H](c3ccccc3O1)N1CCCCSC1=N2	> 100 µM
O=S(=O)(NC1=NCCN1C(=S)SN1CCn2c1nsc2=S)c1ccc(OC(F)(F)F)cc1	21.8 µM
O=C(O)c1ccccc1[Se][Se]c1ccccc1C(=O)O	> 100 µM
